Catalogue of molecules with associated inhibition at 15 µM
target: recombinant NMDA receptors NR1/NR2A (Homo sapiens, UniProt Q05586+Q12879); construct: expressed in transfected cells; assay: Inhibition of NMDA evoked cytosolic calcium elevations in transfected HEK293 cells; format: cell-based; conditions: HEK293
Sequence (Q12879 23-1464, other chains not shown): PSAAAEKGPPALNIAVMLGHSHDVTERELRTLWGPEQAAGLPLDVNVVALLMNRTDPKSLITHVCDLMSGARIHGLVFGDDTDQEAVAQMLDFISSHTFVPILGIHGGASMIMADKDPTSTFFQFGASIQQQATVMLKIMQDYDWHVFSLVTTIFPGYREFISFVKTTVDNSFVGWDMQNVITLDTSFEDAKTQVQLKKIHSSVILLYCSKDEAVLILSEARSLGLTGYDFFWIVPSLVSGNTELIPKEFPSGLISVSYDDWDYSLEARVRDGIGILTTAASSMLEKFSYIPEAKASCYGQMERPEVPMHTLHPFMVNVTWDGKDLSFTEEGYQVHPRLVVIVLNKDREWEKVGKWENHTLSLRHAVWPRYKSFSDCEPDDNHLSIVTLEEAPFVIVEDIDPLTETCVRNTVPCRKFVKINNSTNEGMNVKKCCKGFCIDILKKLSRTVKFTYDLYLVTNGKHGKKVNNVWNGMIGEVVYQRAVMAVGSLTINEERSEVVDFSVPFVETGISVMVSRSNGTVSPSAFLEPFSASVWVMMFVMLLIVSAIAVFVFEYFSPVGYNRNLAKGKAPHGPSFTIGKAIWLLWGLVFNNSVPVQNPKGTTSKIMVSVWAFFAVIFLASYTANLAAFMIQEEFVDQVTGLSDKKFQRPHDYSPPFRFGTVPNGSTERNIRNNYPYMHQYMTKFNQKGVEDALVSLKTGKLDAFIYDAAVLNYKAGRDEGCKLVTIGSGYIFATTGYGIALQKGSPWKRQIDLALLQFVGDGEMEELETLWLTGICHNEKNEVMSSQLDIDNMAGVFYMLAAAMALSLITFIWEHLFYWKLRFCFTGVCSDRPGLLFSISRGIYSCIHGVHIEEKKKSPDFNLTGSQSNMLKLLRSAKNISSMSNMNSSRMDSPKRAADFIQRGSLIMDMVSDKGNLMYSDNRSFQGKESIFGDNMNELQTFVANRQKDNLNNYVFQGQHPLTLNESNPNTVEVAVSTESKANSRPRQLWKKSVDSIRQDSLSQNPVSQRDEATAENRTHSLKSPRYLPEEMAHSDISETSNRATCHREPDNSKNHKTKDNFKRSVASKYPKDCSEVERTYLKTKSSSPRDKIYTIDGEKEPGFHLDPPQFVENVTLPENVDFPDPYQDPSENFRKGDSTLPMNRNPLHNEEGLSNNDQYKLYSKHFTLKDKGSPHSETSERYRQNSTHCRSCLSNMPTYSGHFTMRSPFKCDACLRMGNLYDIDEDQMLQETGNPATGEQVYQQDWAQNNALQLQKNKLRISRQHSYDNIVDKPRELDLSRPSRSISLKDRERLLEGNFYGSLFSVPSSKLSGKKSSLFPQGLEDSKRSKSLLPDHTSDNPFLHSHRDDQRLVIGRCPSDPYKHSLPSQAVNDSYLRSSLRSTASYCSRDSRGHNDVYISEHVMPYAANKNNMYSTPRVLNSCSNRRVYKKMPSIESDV

Form field, inhibition at 15 µM with recombinant NMDA receptors NR1/NR2A (Homo sapiens, UniProt Q05586+Q12879), item `O=C(c1nc2ccc(O)cc2[nH]1)N1CCC(=Cc2ccc(F)cc2)CC1` : < 30%

Form field, inhibition at 15 µM with recombinant NMDA receptors NR1/NR2A (Homo sapiens, UniProt Q05586+Q12879), item `O=C(c1nc2ccc(O)cc2[nH]1)N1CCC(=Cc2ccccc2)CC1` : 33%

Form field, inhibition at 15 µM with recombinant NMDA receptors NR1/NR2A (Homo sapiens, UniProt Q05586+Q12879), item `COc1ccc(C=C2CCN(C(=O)c3nc4ccc(O)cc4[nH]3)CC2)cc1` : 52%

***
Form field, inhibition at 15 µM with recombinant NMDA receptors NR1/NR2A (Homo sapiens, UniProt Q05586+Q12879), item `Cc1ccc(C=C2CCN(C(=O)c3nc4ccc(O)cc4[nH]3)CC2)cc1` : 34%

Form field, inhibition at 15 µM with recombinant NMDA receptors NR1/NR2A (Homo sapiens, UniProt Q05586+Q12879), item `O=C(c1cc2ccc(O)cc2[nH]1)N1CCC(=Cc2ccccc2)CC1` : < 30%

Form field, inhibition at 15 µM with recombinant NMDA receptors NR1/NR2A (Homo sapiens, UniProt Q05586+Q12879), item `O=C(c1nc2ccc(O)cc2[nH]1)N1CCC(=Cc2ccc(Cl)cc2)CC1` : < 30%
